Assay: Cell Viability - Jurkat (AID 426);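 note: potency is the fitted concentration of half-maximal effect; cells exposed to compound for 40 hours at 37 °C before ATP read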
Details: qHTS
Description: NIH Chemical Genomics Center [NCGC] NIH Molecular Libraries Screening Centers Network [MLSCN] National Institutes of Environmental Health Sciences [NIEHS] National Toxicology Program [NTP] We have developed a 1536-well cell-based assay for quantitative high throughput screening (qHTS) against a number of cell lines to determine in vitro cytotoxicity of small molecules. […] 7. Detection; Luminescence; Viewlux plate reader […]
Records with an inconclusive call do not appear. The source made the active and inactive calls.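 Rule for the calls: active = dose-dependent loss of cell ATP signal giving a full or clear fitted curve, ranked by lower potency value; inconclusive = weak partial curve or response only at the top dose; inactive = no loss of viability signal.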
Write down the outcome that applies. Available outcomes: active, inactive

query: Any idea what this test logged for C[C@]12C=CC(=O)C=C1CC[C@@H]1[C@@H]2C(=O)C[C@@]2(C)[C@H]1CC[C@]2(O)C(=O)CO ?
result: inactive

query: Next record, please: Cc1cc(NS(=O)(=O)c2ccc(N)cc2)no1
result: inactive

query: Next record, please: Cc1noc(NS(=O)(=O)c2ccc(N)cc2)c1C
result: inactive

query: Next record, please: CN(C)c1ccc(C(=C2C=CC(=[N+](C)C)C=C2)c2ccc(N(C)C)cc2)cc1
result: active

query: Next record, please: CC(=O)Oc1ccccc1C(=O)Nc1ncc([N+](=O)[O-])s1
result: active

query: Next record, please: CC1=NN(c2ccccc2)C(=O)C1
result: inactive

query: Next record, please: NC(N)=NC(N)=NCCc1ccccc1
result: inactive

====

Assay: Quantitative High-Throughput drug screen in 47 multiple myeloma cell lines against the NCATS MIPE library collection: U266_ATCC cell viability assay (AID 1919864); note: nearly all actives have a fitted effect of over 35% in size
Settings: U266 myeloma viability, CellTiter-Glo ATP luminescence, 48 h; series mostly up to 45.8 µM
From the text: PI: Beverly A. Mock Ph.D. Laboratory of Cancer Biology and Genetics, Center for Cancer Research, National Cancer Institute, National Institute of Health, Bethesda, Maryland […] 5; Detector; 425V; Luminescence; Viewlux PerkinElmer. […] 1. […] Briefly, the corresponding myeloma cell lines were screened in 1,536-well plates with 500 cells, 5-uL per well for inhibition of cell viability (assessed by measuring ATP levels with CellTiterGlo). […]
Inconclusive results are not listed. Active and inactive are the calls of the source. The call rests on the fitted dose curve; in most records, active means well fitted cell-killing curve with a large enough effect; inconclusive means small, poorly fitted or top-dose-only effect, or effect the other way; inactive means no such curve, though single readings can be large or run the other way.
Write down the outcome that applies. Available outcomes: yes (1) (active), no (0) (inactive)

query: Any idea what this test logged for COc1ccc2cc3[n+](cc2c1OC)CCc1cc2c(cc1-3)OCO2 ?
result: yes (1)

query: Next record, please: Cc1cccc(N(C)C(=S)Oc2ccc3ccccc3c2)c1
result: yes (1)

query: Next record, please: CO[C@@]12[C@H](COC(N)=O)C3=C(C(=O)C(C)=C(N)C3=O)N1C[C@@H]1N[C@@H]12
result: yes (1)

query: Next record, please: O=C(O)c1cn(C2CC2)c2cc(N3CCNCC3)c(F)cc2c1=O
result: no (0)

query: Next record, please: COc1ccccc1OCC(O)COC(N)=O (stereo not given)
result: no (0)

query: Next record, please: Nc1nc(N)nc(-c2cc(Cl)ccc2Cl)n1
result: no (0)

query: Next record, please: COc1ccc(C(=O)CC(=O)c2ccc(C(C)(C)C)cc2)cc1
result: yes (1)

query: Next record, please: Cc1oc(=O)oc1CN1CCN(c2cc3c(cc2F)c(=O)c(C(=O)O)c2n3C(C)S2)CC1 (stereo not given)
result: no (0)

query: Next record, please: CC(C)(C)NC(=O)[C@H]1CC[C@H]2[C@@H]3CC[C@H]4NC(=O)C=C[C@]4(C)[C@H]3CC[C@]12C
result: yes (1)

query: Next record, please: COc1cc([C@@H]2c3cc4c(cc3[C@H](O)[C@H]3COC(=O)[C@H]23)OCO4)cc(OC)c1OC
result: no (0)

query: Next record, please: CC(C)C[C@H](NC(=O)[C@H](CCc1ccccc1)NC(=O)CN1CCOCC1)C(=O)N[C@@H](Cc1ccccc1)C(=O)N[C@@H](CC(C)C)C(=O)[C@@]1(C)CO1
result: yes (1)

query: Next record, please: CCOC(=O)[C@H](CCc1ccccc1)N[C@H]1CS[C@H](c2cccs2)CN(CC(=O)O)C1=O
result: yes (1)

query: Next record, please: Nc1[nH]c(=O)ncc1F
result: yes (1)

query: Next record, please: C[C@@H](CN1CC(=O)NC(=O)C1)N1CC(=O)NC(=O)C1
result: no (0)

query: Next record, please: CCc1c2c(nc3ccc(OC(=O)N4CCC(N5CCCCC5)CC4)cc13)-c1cc3c(c(=O)n1C2)COC(=O)[C@]3(O)CC
result: yes (1)

====

tested on: NIH3T3; assay: Cytotoxic Profiling of Annotated Libraries Using Quantitative High-Throughput Screening (AID 1296008); conditions: Five cell lines viability, CellTiter-Glo ATP luminescence, 48-72 h; note: nearly all actives have a fitted effect of over 60% in size
Results filed as inconclusive are left out. Active and inactive are the calls of the source. The call rests on the fitted dose curve; in most records, active means well fitted inhibition curve with a large enough effect; inconclusive means small, poorly fitted or top-dose-only effect; inactive means flat fitted curve, though single readings scatter.
Write down the outcome that applies. Available outcomes: yes (1) for active, no (0) for inactive

query: Any idea what this test logged for CC(C)OC(=O)C(C(=O)OC(C)C)=C1SC=CS1 ?
result: no (0)

query: Next record, please: Cc1ccc(S(=O)(=O)N[C@@H](Cc2ccccc2)C(=O)CCl)cc1
result: no (0)

query: Next record, please: NC(=O)N1c2ccccc2CC(=O)c2ccccc21
result: no (0)

query: Next record, please: Cc1cc(NS(=O)(=O)c2ccc(N)cc2)no1
result: no (0)

query: Next record, please: CN(Cc1cc(Br)cc(Br)c1N)C1CCCCC1
result: no (0)

query: Next record, please: Nc1nc(N)c2nc(CNc3ccc(C(=O)NC(CCC(=O)O)C(=O)O)cc3)cnc2n1 (configuration not stated)
result: yes (1)

query: Next record, please: C#CCN[C@@H]1CCc2ccccc21
result: no (0)

====

assay: qHTS of pediatric cancer cell lines to identify multiple opportunities for drug repurposing: Primary screen for Saos-2 cells (AID 1347097); conditions: Saos-2 viability, CellTiter-Glo ATP luminescence, 48 h; series mostly up to 46 µM; note: nearly all actives have a fitted effect of over 40% in size
Records with an inconclusive call do not appear. Active and inactive are the calls of the source. Calls follow the shape of the dose curve; as a rule, active = well fitted cell-killing curve with a large enough effect; inconclusive = small, poorly fitted or top-dose-only effect; inactive = no such curve, though single readings can be large or run the other way.
Write down the outcome that applies. Available outcomes: label 1 (active), label 0 (inactive)

query: Any idea what this test logged for CCN[C@H]1C[C@H](C)S(=O)(=O)c2sc(S(N)(=O)=O)cc21 ?
result: label 0

query: Next record, please: CC(=O)CC(c1ccccc1)c1c(O)c2ccccc2oc1=O (stereo unspecified)
result: label 0

query: Next record, please: Oc1c(Cl)cc(Cl)c2cccnc12
result: label 1

query: Next record, please: CC(C)C1CCC(C(=O)N[C@H](Cc2ccccc2)C(=O)O)CC1 (stereo partly specified)
result: label 0

query: Next record, please: COc1ccccc1OCC(O)COC(N)=O (stereo unspecified)
result: label 0

query: Next record, please: Clc1ccccc1CN1CCc2sccc2C1
result: label 1

query: Next record, please: COCCCOc1cc(C[C@@H](C[C@H](N)[C@@H](O)C[C@H](C(=O)NCC(C)(C)C(N)=O)C(C)C)C(C)C)ccc1OC
result: label 0

query: Next record, please: CN1CCCC(n2nc(Cc3ccc(Cl)cc3)c3ccccc3c2=O)CC1 (stereo unspecified)
result: label 1

query: Next record, please: Nc1nc(N)c2nc(CNc3ccc(C(=O)NC(CCC(=O)O)C(=O)O)cc3)cnc2n1 (stereo unspecified)
result: label 0

query: Next record, please: O=C(NCC1CN(c2ccc(N3CCOCC3=O)cc2)C(=O)O1)c1ccc(Cl)s1 (stereo unspecified)
result: label 0

query: Next record, please: Cc1onc(-c2ccccc2Cl)c1C(=O)N[C@@H]1C(=O)N2[C@@H]1SC(C)(C)[C@@H]2C(=O)O
result: label 0

query: Next record, please: COC(=O)Nc1nc2ccc(S(=O)c3ccccc3)cc2[nH]1 (stereo unspecified)
result: label 1

query: Next record, please: NNC(=O)c1ccncc1
result: label 0

query: Next record, please: O=C(O)CSCC(=O)NC1CCSC1=O (stereo unspecified)
result: label 0

query: Next record, please: O=C(O)C1CCCN(CCC=C(c2ccccc2)c2ccccc2)C1 (stereo unspecified)
result: label 0

query: Next record, please: CCCc1cc(C(N)=S)ccn1
result: label 0

====

assay: qHTS of pediatric cancer cell lines to identify multiple opportunities for drug repurposing: Confirmatory screen for NB-EBc1 cells (AID 1347115); settings: NB-EBc1 neuroblastoma cells, viability (cytotoxicity); series mostly up to 45.9 µM;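 note: cells exposed to compound for 48 h before the viability read; nearly all actives have a fitted effect of over 45% in size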; note: potency is the fitted concentration of half-maximal effect
Inconclusive results are not listed. Calls of active or inactive are those of the source. Calls come from the whole dose curve; as a rule, active = well fitted cell-killing curve with a large enough effect; inconclusive = small, poorly fitted or top-dose-only effect, or effect the other way; inactive = no such curve, though single readings can be large or run the other way.
property_label: Potency

Please review the entries below; each comes with its answer.
molecule | property_label | recorded_value
CCCCOc1ccc(CC(=O)NO)cc1 | Potency | inactive
CCC(=O)O[C@]1(C(=O)CCl)[C@@H](C)C[C@H]2[C@@H]3CCC4=CC(=O)C=C[C@]4(C)[C@@]3(F)[C@@H](O)C[C@@]21C | Potency | inactive
CCc1c2c(nc3ccc(OC(=O)N4CCC(N5CCCCC5)CC4)cc13)-c1cc3c(c(=O)n1C2)COC(=O)[C@]3(O)CC | Potency | 737 nM (active)
CC1CC2C3CCC4=CC(=O)C=C[C@]4(C)[C@@]3(F)[C@@H](O)C[C@]2(C)[C@@]1(O)C(=O)CO (stereo partly drawn) | Potency | inactive
CN1CCCC(n2nc(Cc3ccc(Cl)cc3)c3ccccc3c2=O)CC1 (stereo not drawn) | Potency | inactive

query: Any idea what its Potency is? The molecule is Nc1nc(=S)c2[nH]cnc2[nH]1
result: 2610 nM (active)

query: Next record, please: CCOC(=O)[C@H](CCc1ccccc1)N[C@H]1CS[C@H](c2cccs2)CN(CC(=O)O)C1=O
result: inactive

query: Next record, please: CC(C)NCC(O)c1ccc(NS(C)(=O)=O)cc1 (stereo not drawn)
result: inactive

Data origin, for the record: PubChem BioAssay (NCATS)
